system: T1, Nluc-IL23R fusion protein (human, UniProt Q5VWK5 22-629)
T1 construct: range 22-629; Stably expressed in HEK293 cells; also called hIL-23R; human IL-23R fused to a Nanoluc luciferase enzyme; not shown: Nanoluc luciferase (Promega N1371 plasmid) at the N-terminus
T1 sequence (looked up): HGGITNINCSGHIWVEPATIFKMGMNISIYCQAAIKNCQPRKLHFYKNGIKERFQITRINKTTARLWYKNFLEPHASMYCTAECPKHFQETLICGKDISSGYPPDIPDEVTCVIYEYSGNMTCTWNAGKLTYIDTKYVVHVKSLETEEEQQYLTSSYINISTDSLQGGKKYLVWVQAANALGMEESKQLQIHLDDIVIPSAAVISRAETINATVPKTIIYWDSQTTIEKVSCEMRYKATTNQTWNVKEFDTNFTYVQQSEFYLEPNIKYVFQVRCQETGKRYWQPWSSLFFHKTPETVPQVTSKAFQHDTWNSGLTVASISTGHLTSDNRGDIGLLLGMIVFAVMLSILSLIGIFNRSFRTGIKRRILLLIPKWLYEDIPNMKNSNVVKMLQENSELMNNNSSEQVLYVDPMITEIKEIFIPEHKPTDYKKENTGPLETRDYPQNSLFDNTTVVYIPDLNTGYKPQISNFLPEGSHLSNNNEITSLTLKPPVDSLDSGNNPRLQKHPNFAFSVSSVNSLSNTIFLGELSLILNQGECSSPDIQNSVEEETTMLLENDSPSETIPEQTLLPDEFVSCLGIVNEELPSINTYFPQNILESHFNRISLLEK
assay-info: BRET displacement of TAMRA-labelled peptide, Nluc-IL23R membranes
pKi: −log10 of the molar value. Bridges are numbered along the chain shown (N, C = ends). 1,3‑dibromopropan‑2‑one = linker (CAS 816-39-7) joining two Cys as 1,3-dithio-propan-2-one bridge -SCH2C(=O)CH2S-
measurement-label: pKi

[[record]]
binder = "H-ECWLCYYRNCNCM-NH2 (linker 5-10, 2-12 via 1,3‑dibromopropan‑2‑one, Peptide of Heinis et al., 2020, synthesised and tested by the inventors) [I4 (isomer 3)]"
reported_result = "< 6.00"

